Catalogue of IC50 readings, one per entry.
biological target: Cytochrome P450 2C9 (Homo sapiens, UniProt P11712); assay: Inhibition of human recombinant CYP2C9
Sequence (P11712 whole entry): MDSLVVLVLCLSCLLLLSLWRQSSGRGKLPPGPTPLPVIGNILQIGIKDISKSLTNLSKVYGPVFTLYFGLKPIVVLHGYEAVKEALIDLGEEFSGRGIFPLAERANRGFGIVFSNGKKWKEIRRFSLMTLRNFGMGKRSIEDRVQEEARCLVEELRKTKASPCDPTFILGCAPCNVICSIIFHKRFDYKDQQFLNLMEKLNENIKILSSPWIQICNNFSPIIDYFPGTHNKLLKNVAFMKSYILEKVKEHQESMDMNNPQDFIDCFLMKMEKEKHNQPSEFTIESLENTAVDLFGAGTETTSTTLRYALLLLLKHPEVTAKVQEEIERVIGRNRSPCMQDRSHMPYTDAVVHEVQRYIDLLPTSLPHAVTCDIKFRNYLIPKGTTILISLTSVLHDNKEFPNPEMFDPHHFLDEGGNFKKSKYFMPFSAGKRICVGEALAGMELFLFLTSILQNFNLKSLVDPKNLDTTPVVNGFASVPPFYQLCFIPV

- entry.smiles: "Cn1nc2c(-c3ccc(Cl)cc3)c(-c3ccncc3)c(=O)n(Cc3ccc(C(F)(F)F)nc3)n2c1=O"
  target.entity: "Cytochrome P450 2C9 (Homo sapiens, UniProt P11712)"
  IC50: "1.9 µM"
- entry.smiles: "CCn1nc2c(-c3ccc(Cl)cc3)c(-c3ccncc3)c(=O)n(Cc3ccc(C(F)(F)F)nc3)n2c1=O"
  target.entity: "Cytochrome P450 2C9 (Homo sapiens, UniProt P11712)"
  IC50: "4.9 µM"
- entry.smiles: "CCn1nc2c(-c3ccc(Cl)cc3)c(-c3cnn(C)c3)c(=O)n(Cc3ccc(C#N)cc3)n2c1=O"
  target.entity: "Cytochrome P450 2C9 (Homo sapiens, UniProt P11712)"
  IC50: "> 40 µM"
- entry.smiles: "CCn1nc2c(-c3ccc(Cl)cc3)c(-c3ccncc3)c(=O)n(Cc3ccc(C(F)(F)F)nc3C)n2c1=O"
  target.entity: "Cytochrome P450 2C9 (Homo sapiens, UniProt P11712)"
  IC50: "4.2 µM"
- entry.smiles: "Cc1nc(C(F)(F)F)ccc1Cn1c(=O)c(-c2ccncc2)c(-c2ccc(Cl)cc2)c2nn(C)c(=O)n21"
  target.entity: "Cytochrome P450 2C9 (Homo sapiens, UniProt P11712)"
  IC50: "2.9 µM"
- entry.smiles: "CCn1nc2c(-c3ccc(Cl)cc3)c(-c3ccc(C#N)cc3)c(=O)n(Cc3ccc(C(F)(F)F)nc3C)n2c1=O"
  target.entity: "Cytochrome P450 2C9 (Homo sapiens, UniProt P11712)"
  IC50: "> 40 µM"
- entry.smiles: "CCn1nc2c(-c3ccc(Cl)cc3)c(-c3ccncc3F)c(=O)n(Cc3ccc(C(F)(F)F)nc3C)n2c1=O"
  target.entity: "Cytochrome P450 2C9 (Homo sapiens, UniProt P11712)"
  IC50: "14 µM"
- entry.smiles: "CCn1nc2c(-c3ccc(Cl)cc3)c(-c3ccncc3C)c(=O)n(Cc3ccc(C(F)(F)F)nc3C)n2c1=O"
  target.entity: "Cytochrome P450 2C9 (Homo sapiens, UniProt P11712)"
  IC50: "5 µM"
- entry.smiles: "CCn1nc2c(-c3ccc(Cl)cc3)c(-c3cnc(N(C)C)nc3)c(=O)n(Cc3ccc(C#N)cc3)n2c1=O"
  target.entity: "Cytochrome P450 2C9 (Homo sapiens, UniProt P11712)"
  IC50: "> 40 µM"
- entry.smiles: "CCn1nc2c(-c3ccc(Cl)cc3)c(-c3cnc(C)nc3)c(=O)n(Cc3ccc(C(F)(F)F)nc3C)n2c1=O"
  target.entity: "Cytochrome P450 2C9 (Homo sapiens, UniProt P11712)"
  IC50: "> 40 µM"
